B1: CPEB3 Ribozyme (parent)
chain: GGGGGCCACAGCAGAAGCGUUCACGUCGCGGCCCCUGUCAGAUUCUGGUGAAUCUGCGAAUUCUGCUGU

- Variants of: B1
- assay_details: self-cleavage, relative activity (ratio to wild type); higher = more cleavage; co-transcriptional
recorded_endpoint: self-cleavage

A51G U69A; 0.995
A16C C35G; 0.118

q: Can you share its self-cleavage? I mean this variant: A15U U20G
a: 0.132

q: Can you share its self-cleavage? I mean this variant: A52C U61A
a: 0.893
